# binding signal annotations
Target: prothrombin (Homo sapiens, UniProt P00734 P00734:44-622)
Assay: filter; 50 nM prothrombin
Conditions: tags: Athens Research
Be sure to follow the number with its unit.

• TCCCGGTTGTCGATTCTGGTATTGTTGGGCTGGGTGGCTGAGGATCGATC (ssDNA) [AMX(399)_H7] = 36.1 % bound
• TCCCGATTATCCGTTGGTATTGTTGGTCTGGGTGGCTGAGGATCGATC (ssDNA) [AMX(398)_B12] = 20.2 % bound
• TCCCATCGTCTGTGGTATAGGAACTTCTGGGTGGCTGAGGATCGATC (ssDNA) [AMX(399)_G2] = 7.28 % bound
• TCCCGATTTGAGTTTAGTAGGGTGGGTAGGATGGTGGCTGAGGATCGATC (ssDNA) [AMX(398)_D1] = 11.8 % bound
• TCCCTATCGAGCTGTGGTAGTATTCTGGTTTGGGTGGCTGAGGATCGATC (ssDNA) [AMX(398)_A7] = 25.4 % bound
• TCCCATCGAGACGGGGTGTCTTTTGTGGCTTGGGTGGCTGAGGATCGATC (ssDNA) [AMX(398)_E6] = 30.3 % bound
• TCCGATTGACGTGGTGGGTTACTGGTTTGGGTGGCTGAGGATCGATC (ssDNA) [AMX(398)_A1] = 18 % bound
• TCCCATCGATTTGTCCTCAGAGGTTGGCGTGGGTGGCTGAGGATCGATC (ssDNA) [AMX(399)_B12] = 15.3 % bound

Please indicate binding signal recorded for TCCCGTCGATTCGGTATGGTTTCGTTTCTGGGTGGCTGAGGATCGATC (ssDNA) [AMX(399)_B11]
18.2 % bound

Please indicate binding signal recorded for TCCCATCGATACGGGGTGGAATCTTGGGGTGGGTGGCTGAGGATCGATC (ssDNA) [AMX(399)_E9]
13.8 % bound

Please indicate binding signal recorded for TCCCATCGATCTGTGGTGGTTTTGTGGCTTGGGTGGCTGAGGATCGATC (ssDNA) [AMX(399)_G8]
25.9 % bound
